Consider the following compounds; for each one, report its pIC50.
molecular target: AVP-V2 sites (Rattus norvegicus, UniProt Q00788)
Sequence (Q00788 whole entry): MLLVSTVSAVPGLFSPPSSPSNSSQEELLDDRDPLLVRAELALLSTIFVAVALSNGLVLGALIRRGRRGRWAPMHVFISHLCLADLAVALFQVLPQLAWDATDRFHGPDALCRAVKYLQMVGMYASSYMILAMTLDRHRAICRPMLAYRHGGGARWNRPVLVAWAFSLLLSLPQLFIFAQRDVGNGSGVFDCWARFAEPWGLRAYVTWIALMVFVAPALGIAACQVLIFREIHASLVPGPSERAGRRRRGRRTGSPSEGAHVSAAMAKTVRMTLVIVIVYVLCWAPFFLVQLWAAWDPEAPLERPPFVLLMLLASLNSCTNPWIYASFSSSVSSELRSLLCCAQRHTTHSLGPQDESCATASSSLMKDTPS
As a rule, pIC50 stands for the negative log10 of the concentration, concentration in M.

Any idea what pIC50 was measured for COc1ccccc1C(=O)N1CCC(N2C(=O)CCc3ccccc32)CC1 [o-OCH3] ?
4.18

Same question, O=C(c1ccc2[nH]ccc2c1)N1CCC(N2C(=O)CCc3ccccc32)CC1 [CO, 5-indolyl] this time
4.25

O=C(c1ccc(C(F)(F)F)cc1)N1CCC(N2C(=O)CCc3ccccc32)CC1 [CF3] ?
4.22

Would you kindly repeat that for CC1(C)[C@@H]2CC[C@@]1(CS(=O)(=O)N1CCC(N3C(=O)CCc4ccccc43)CC1)C(=O)C2 [SO2, (+)-camphor-10-yl] ?
4.14

Can you check COc1ccc(C(=O)N2CCC(N3C(=O)CCc4ccccc43)CC2)c(OC)c1 [o-OCH3, p-OCH3 (drawing 527)] next?
4.55

###

target: AVP-V1 sites (Rattus norvegicus); construct: crude membrane preparation of male rat liver; from tissue; host or cells: male rat liver, crude membrane preparation; assay: [3H]vasopressin (AVP) radioligand binding, liver membranes (AVP-V1 sites)
Sequence (P30560 whole entry): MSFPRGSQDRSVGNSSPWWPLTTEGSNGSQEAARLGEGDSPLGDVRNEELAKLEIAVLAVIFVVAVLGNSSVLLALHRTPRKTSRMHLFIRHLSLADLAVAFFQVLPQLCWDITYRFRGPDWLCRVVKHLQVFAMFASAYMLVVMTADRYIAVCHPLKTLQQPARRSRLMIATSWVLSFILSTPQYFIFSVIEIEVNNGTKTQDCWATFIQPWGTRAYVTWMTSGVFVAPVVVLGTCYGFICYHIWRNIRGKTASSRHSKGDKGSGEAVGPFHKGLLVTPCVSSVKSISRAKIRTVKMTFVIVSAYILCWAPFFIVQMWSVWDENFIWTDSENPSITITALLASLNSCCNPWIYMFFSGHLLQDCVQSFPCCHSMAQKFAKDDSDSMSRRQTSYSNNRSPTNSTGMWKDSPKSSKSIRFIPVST
# note: exactly 800 nM is not below, so it is No; use Yes for IC50 strictly under it

Please state whether IC50 is below 800 nM for "COc1ccc(CC(=O)N2CCC(N3C(=O)CCc4ccccc43)CC2)cc1"
No

// same read-out, input: "CC(=O)Nc1ccc(CC(=O)N2CCC(N3C(=O)CCc4ccccc43)CC2)cc1"
No

Param item: CC1(C)[C@@H]2CC[C@@]1(CS(=O)(=O)N1CCC(N3C(=O)CCc4ccccc43)CC1)C(=O)C2 [SO2, (+)-camphor-10-yl]
No

What do you have for "O=C(c1ccc2[nH]ccc2c1)N1CCC(N2C(=O)CCc3ccccc32)CC1" ?
Yes

Can you check "COc1cccc(C(=O)N2CCC(N3C(=O)CCc4ccccc43)CC2)c1" next?
No

Can you handle "COc1ccc(C(=O)N2CCC(N3C(=O)CCc4ccccc43)CC2)c(OC)c1" next?
Yes

Follow-up entry: "COc1ccccc1C(=O)N1CCC(N2C(=O)CCc3ccccc32)CC1"
Yes

###

Exercise: state measured inhibition at 3 µM for each of the compounds provided.
target: UniProt Q00788; experiment: [3H]vasopressin (AVP) radioligand binding, kidney medulla membranes (AVP-V2 sites); settings: @ 3 uM; read-out: % Inhibition rat V2
Number in %, nothing else.

Can you share its inhibition at 3 µM? I mean this compound: O=C(c1ccc(Cl)cc1Cl)N1CCC(N2C(=O)CCc3ccccc32)CC1 [o-Cl, p-Cl]
1

Quick one: O=C(c1cccc2ccccc12)N1CCC(N2C(=O)CCc3ccccc32)CC1 [CO, 1-naphthyl]
5

Try this compound too: Nc1ccc(CC(=O)N2CCC(N3C(=O)CCc4ccccc43)CC2)cc1 [CO, p-CH2C6H4NH2]
1

Same question, Cc1ccc(C(=O)N2CCC(N3C(=O)CCc4ccccc43)CC2)c(C)c1 [o-CH3, p-CH3] this time
55

# repeat for COc1ccc(S(=O)(=O)N2CCC(N3C(=O)CCc4ccccc43)CC2)cc1 [SO2, p-C6H4OCH3]
12

###

molecular target: AVP-V2 sites (Rattus norvegicus)
I'd be grateful if you could share measured IC50 for these entries.

IC50 for O=C(c1ccc(OCCCN2C(=O)c3ccccc3C2=O)cc1)N1CCC(N2C(=O)CCc3ccccc32)CC1 [O(CH2)3NPth (drawing 528)] ?
≥ 100 µM

Would you mind doing "COc1cccc(C(=O)N2CCC(N3C(=O)CCc4ccccc43)CC2)c1" as well?
> 100 µM

Quick one: "CC(C)(C)c1ccc(C(=O)N2CCC(N3C(=O)CCc4ccccc43)CC2)cc1"
~70 µM

What about this compound? "COc1ccc(CC(=O)N2CCC(N3C(=O)CCc4ccccc43)CC2)cc1"
> 100 µM

Now consider "CC(=O)Nc1ccc(CC(=O)N2CCC(N3C(=O)CCc4ccccc43)CC2)cc1" and answer again.
> 100 µM

The measurements presented in this section are drawn from patent US5356904A.
